Hi there, I'd appreciate the recorded % Responders for every entry that follows.
System: PBMC from healthy, seropositive donors
Assay type: cell-based, human
Lab book: enter the figure in %, no units written.

(Q) Quote PBMC from healthy, seropositive donors % Responders for entry FTVVAAKPGFNNHEENGQSA [BPSL2096_P2] .
(A) 88.2

(Q) Specify % Responders for RDGFAPGHLSLGAMVSRAIA [BPSS1599_P7] , system PBMC from healthy, seropositive donors.
(A) 95.8

(Q) Look up and report % Responders, with PBMC from healthy, seropositive donors as system, for AELAARPEYRELQPYARQQA [BPSS1525_P20]
(A) 92.3

(Q) Specify the recorded % Responders for MSAAAQDRSIGAAQMTAAIA [BPSS1531_P20] , system: PBMC from healthy, seropositive donors.
(A) 91.4

(Q) Using PBMC from healthy, seropositive donors as the test system, report measured % Responders of CLALQAARTGGPEMAFGDVE [BPSS0530_P11] .
(A) 97.7

(Q) Provide % Responders, recorded with PBMC from healthy, seropositive donors, of WKSQLRSDEVALPIARVAGR [BPSS0530_P17]
(A) 97.7

(Q) Tell me % Responders of RMRLANLDAFDPLPPAMLYH [BPSS0530_P26] when tested on PBMC from healthy, seropositive donors.
(A) 88.4

(Q) Enter measured % Responders, system PBMC from healthy, seropositive donors, for the sequence shown: REPKKQDICYATQNRQDAVK [BPSL0919_P21]
(A) 94.6

(Q) GET % Responders | system: PBMC from healthy, seropositive donors | item: APDRRVEVEVVGTQEVQKTT [BPSL2522_P21]
(A) 100.0

(Q) Look up and report % Responders, with PBMC from healthy, seropositive donors as system, for ITNYFTGLQTVANNAADPSA [BPSL0280_P12]
(A) 82.8

(Q) Answer briefly: % Responders recorded on PBMC from healthy, seropositive donors for GAGIGALAGGGKGAAIGAGV [BPSL0999_P5]
(A) 80.9

(Q) Print PBMC from healthy, seropositive donors % Responders for HQASLRLGQTSNHGWGFTLL [BPSS0530_P4] .
(A) 83.7

(Q) Fill in % Responders for ELCWRDAFWTPATANAKCDG [BPSL2522_P6] tested with PBMC from healthy, seropositive donors.
(A) 91.4

(Q) With PBMC from healthy, seropositive donors as the test system, provide measured % Responders for this sequence: ALPIARVAGRNASRTVSLDP [BPSS0530_P18]
(A) 100.0

(Q) Give the observed % Responders of LSPRAALIAATAACVVLGGA [BPSS1599_P20] for PBMC from healthy, seropositive donors.
(A) 97.9

(Q) Recall the reported % Responders of IQHVSVNNLNVGRSPEEILR [BPSL2096_P15] when tested on PBMC from healthy, seropositive donors.
(A) 82.4

(Q) Output reported % Responders of the sequence ASTSAQRVLSTGGGVADLIE [BPSS0530_P23] on PBMC from healthy, seropositive donors.
(A) 90.7

(Q) Report the value of % Responders obtained on PBMC from healthy, seropositive donors for ELQSTLRVRLASTSAQRVLS [BPSS0530_P22] .
(A) 88.4

(Q) Please look at GALGGLLAFRSQTLDPAQAQ [BPSL0280_P29] and tell me its recorded % Responders on PBMC from healthy, seropositive donors.
(A) 93.1

(Q) Look up PBMC from healthy, seropositive donors data: % Responders of AWRREHKDLDKLNHYSFGDV [BPSL2096_P10] , then report it.
(A) 88.2

(Q) Please report % Responders with PBMC from healthy, seropositive donors for item EVPDLAVGLDAPGTPRRLTI [BPSS0530_P14] .
(A) 95.3

(Q) Using PBMC from healthy, seropositive donors as the test system, report measured % Responders of SALSATDQANATAMVAQINA [BPSL3319_P27] .
(A) 86.7

(Q) Give % Responders; test system PBMC from healthy, seropositive donors; sequence KLNHYSFGDVKGELIDQLGV [BPSL2096_P11]
(A) 88.2

(Q) Report % Responders on PBMC from healthy, seropositive donors for this entry: PATANAKCDGALVAQAPAPA [BPSL2522_P7]
(A) 82.9

(Q) Enter recorded % Responders with PBMC from healthy, seropositive donors for EFVRAIDVPGLRVERIAYQN [BPSS1599_P41] here.
(A) 87.5

(Q) With PBMC from healthy, seropositive donors as the test system, provide measured % Responders for this sequence: GKGAAIGAGVGALVGGVTGY [BPSL0999_P6]
(A) 91.5
